Ref: patent US20190031665A1

molecular target: human indoleamine 2,3-dioxygenase 1 (hIDO1) (Homo sapiens, UniProt P14902); construct: His tag (N); purchased BPS Bioscience, San Diego, Calif., USA; host or cells: E. coli; assay: In-vitro human indoleamine 2,3-dioxygenase 1 (IDO1) enzyme assay; format: biochemical; settings: hIDO1 enzyme at 1.0 μM concentration
Sequence (P14902 whole entry): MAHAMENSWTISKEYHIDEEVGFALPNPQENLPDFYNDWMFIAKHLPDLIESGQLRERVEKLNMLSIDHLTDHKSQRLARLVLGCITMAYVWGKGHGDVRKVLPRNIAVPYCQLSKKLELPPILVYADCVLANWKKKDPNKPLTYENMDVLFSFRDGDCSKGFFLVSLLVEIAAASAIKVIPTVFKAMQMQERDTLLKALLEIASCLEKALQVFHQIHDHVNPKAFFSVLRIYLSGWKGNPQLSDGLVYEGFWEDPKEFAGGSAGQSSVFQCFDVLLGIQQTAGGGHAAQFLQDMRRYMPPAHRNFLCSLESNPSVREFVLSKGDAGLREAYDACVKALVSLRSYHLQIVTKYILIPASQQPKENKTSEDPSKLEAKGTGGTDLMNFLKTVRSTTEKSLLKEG
endpoint_label: inhibition at 1 µM

CC1=C(c2ccccc2)C(CC(=O)C2CCN(Cc3ccccc3)CC2)n2cncc21 (stereo not shown); ≤ 50%
CC1=C(c2ccccc2)C(CC(=O)c2ccc(C(=O)Nc3ccc(F)cc3F)cc2)n2cncc21 (stereo not shown); ≥ 50%
CC1=C(c2cccc(F)c2)C(CC(=O)c2ccccc2)n2cncc21 (stereo not shown); ≤ 50%
CC1=C(c2ccccc2)C(CC(=O)c2ccc(-c3cncnc3)cc2)n2cncc21 (stereo not shown); ≥ 50%

Now let's try a different one.
Lookup: For CC1=C(c2ccccc2)C(CC(=O)c2ccc(N3CCOCC3)cc2)n2cncc21 (stereo not shown) , what is its reported inhibition at 1 µM?
Found: ≤ 50%

----------
molecular target: human tryptophan 2,3-dioxygenase (hTDO) (Homo sapiens); construct: His tag (N); purchased BPS Bioscience, San Diego, Calif., USA; host or cells: E. coli; assay: In-vitro human tryptophan 2,3-dioxygenase (TDO) enzyme assay; type: biochemical; details: hTDO enzyme at 10.0 μM concentration
Sequence (P48775 whole entry): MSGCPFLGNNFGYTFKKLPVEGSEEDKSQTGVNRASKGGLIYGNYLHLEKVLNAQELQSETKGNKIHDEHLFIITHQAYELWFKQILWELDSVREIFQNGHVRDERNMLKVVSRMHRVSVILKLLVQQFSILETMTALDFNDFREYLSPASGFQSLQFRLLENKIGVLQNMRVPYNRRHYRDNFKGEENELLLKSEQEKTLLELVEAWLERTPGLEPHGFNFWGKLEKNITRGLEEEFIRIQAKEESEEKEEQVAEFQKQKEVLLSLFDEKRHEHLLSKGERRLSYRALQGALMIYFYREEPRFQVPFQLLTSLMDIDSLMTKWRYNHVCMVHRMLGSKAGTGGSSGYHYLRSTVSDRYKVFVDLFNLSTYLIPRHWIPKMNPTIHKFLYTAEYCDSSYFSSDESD
endpoint_label: inhibition at 10 µM

Here is how some molecules turned out for inhibition at 10 µM.
CC1=C(c2ccccc2)C(CC(O)c2cccc(Cl)c2)n2cncc21 (stereo not drawn) [Example 19]; ≥ 50%
OC(CC1C2=C(CCCC2)c2cncn21)c1cccc(OCc2ccccc2)c1 (stereo not drawn) [Example 8]; ≥ 50%
CC1=C(c2ccccc2)C(CC(=O)c2cccc(Cl)c2)n2cncc21 (stereo not drawn) [Example 17]; ≥ 50%
COc1cccc(C(=O)CC2C(c3ccccc3)=C(C)c3cncn32)c1 (stereo not drawn) [Example 33]; ≥ 50%
CCCCC(O)CC1C(c2ccccc2)=C(C)c2cncn21 (stereo not drawn) [Example 170]; ≥ 50%

Lookup: I'm curious: which inhibition at 10 µM was measured for COc1ccccc1C(=O)CC1C(c2ccccc2)=C(C)c2cncn21 (stereo not drawn) [Example 32] tested on human tryptophan 2,3-dioxygenase (hTDO) (Homo sapiens)?
Found: ≥ 50%

Lookup: Try CC1=C(c2ccccc2)C(CC(=O)c2ccc3c(c2)OCO3)n2cncc21 (stereo not drawn) [Example 28] next.
Found: ≥ 50%

Lookup: Try O=C(CC1C2=C(CCCC2)c2cncn21)c1cccc(OCc2ccccc2)c1 (stereo not drawn) [Example 7] next.
Found: ≥ 50%

Lookup: Try CC1=C(c2ccccc2)C(CC(=O)c2ccc(C)cc2)n2cncc21 (stereo not drawn) [Example 27] next.
Found: ≥ 50%

----------
target: human indoleamine 2,3-dioxygenase 1 (hIDO1) (Homo sapiens); construct: His tag (N); purchased BPS Bioscience, San Diego, Calif., USA; host or cells: E. coli; experiment: In-vitro human indoleamine 2,3-dioxygenase 1 (IDO1) enzyme assay; format: biochemical; settings: hIDO1 enzyme at 1.0 μM concentration
endpoint_label: inhibition at 1 µM

CC1=C(c2ccccc2)C(CC(=O)C2CCCN2C(=O)c2ccccc2)n2cncc21 (stereo not shown); ≤ 50%
CC1=C(c2ccccc2)C(CC(O)C2CCN(C(=O)NC3CCCCC3)CC2)n2cncc21 (stereo not shown); ≥ 50%
CNC(=O)C1CCC(C(=O)CC2C(c3ccccc3)=C(C)c3cncn32)CC1 (stereo not shown); ≤ 50%

Now let's try a different one.
Lookup: For CC1=C(c2ccccc2)C(CC(=O)c2cccc(F)c2)n2cncc21 (stereo not shown) , what is its reported inhibition at 1 µM?
Found: ≥ 50%
